test system: systemic blood pressure; test: Reduction of systemic blood pressure (Experiment 2(a)); type: in vivo, beagle (anesthetized); settings: intravenous, 25 μg/kg; Table 3

Molecule | Average low pressure retention time [min]
CCOC(=O)CCCN1CCN(c2ccccc2OC)CC1 [F, reference compound] | 8.8
CCOC(=O)CCCCCCN1CCN(c2ccccc2OC)CC1 | 47.3
COc1ccccc1N1CCN(CCCCCCO)CC1 [C, reference compound] | 14.4
CCOC(=O)CCCCN1CCN(c2ccccc2OC)CC1 | 13.4
CCOC(=O)CCCCCCN1CCN(c2ccccc2OC(C)C)CC1 | 22.4
CCOC(=O)CCCCCN1CCN(c2ccccc2OC)CC1 | 20.0
COc1ccccc1N1CCN(CCCCCO)CC1 [B, reference compound] | 15.0
COc1ccccc1N1CCN(CCCCCCCO)CC1 [D, reference compound] | 22.5
CCOC(=O)CCN1CCN(c2ccccc2OC)CC1 [E, reference compound] | 6.8
COC(=O)CCCCCCN1CCN(c2ccccc2OC)CC1 | 18.6
